Study system: RSV F protein (Human respiratory syncytial virus A, UniProt P03420)
Construct: expressed in transfected cells; host or cells: Cos7 cells (transiently transfected), co-plated with BsrT7 cells
Sequence (P03420 137-574): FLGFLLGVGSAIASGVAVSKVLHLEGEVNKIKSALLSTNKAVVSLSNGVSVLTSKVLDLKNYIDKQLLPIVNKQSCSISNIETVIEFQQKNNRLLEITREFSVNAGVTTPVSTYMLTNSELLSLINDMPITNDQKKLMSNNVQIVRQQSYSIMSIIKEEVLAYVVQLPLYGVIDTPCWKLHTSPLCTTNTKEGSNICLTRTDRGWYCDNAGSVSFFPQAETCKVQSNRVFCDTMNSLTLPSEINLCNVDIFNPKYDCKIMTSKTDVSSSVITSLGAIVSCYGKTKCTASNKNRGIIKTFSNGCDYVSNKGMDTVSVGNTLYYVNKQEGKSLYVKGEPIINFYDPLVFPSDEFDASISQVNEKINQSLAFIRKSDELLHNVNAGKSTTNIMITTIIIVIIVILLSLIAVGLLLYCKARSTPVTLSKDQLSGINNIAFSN
Sequence (P03420 26-109): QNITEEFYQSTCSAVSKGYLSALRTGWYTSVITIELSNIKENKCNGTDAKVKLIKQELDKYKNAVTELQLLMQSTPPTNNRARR
Experiment summary: recombinant F CEI fusion assay, 384-well
Assay type: cell-based
Mark y for IC50 under 1000 nM, n if at or over.

Here's what some known entries look like.
Request: Check if IC50 falls below 1000 nM for O=C(c1ccoc1)N1CCN2C(=O)c3cc[n+]([O-])cc3[C@]12c1ccc(Cl)cc1 [BTA-4] .
Response: n

Request: Dear colleague, could you confirm whether IC50 of Cc1ocnc1C(=O)N1CCN2C(=O)c3ccncc3C21C1CCOCC1 (stereo not shown) [BTA-6] falls below 1000 nM? Thanks.
Response: y

Request: In the record for Cc1ocnc1C(=O)N1CCN2C(=O)c3ccncc3[C@@]21c1ccc(Cl)cc1 [BTA-5] , is IC50 less than 1000 nM?
Response: n

Request: # strict comparison: is reported IC50 < 1000 nM? input = O=C(c1ccoc1)N1CCN2C(=O)c3ccncc3[C@]12c1ccc(Cl)cc1 [BTA-2]
Response: y

Request: Please state whether IC50 is below 1000 nM for O=C1c2ccncc2[C@@]2(c3ccc(Cl)cc3)N1CCN2C(=O)C1CC1 [BTA-7]
Response: n

New cases:
Request: Does this compound meet the criterion IC50 < 1000 nM? O=C(c1ccc(F)cc1)N1CCN2C(=O)c3ccncc3C12c1ccc(Cl)cc1 (stereo not shown) [BTA-1]
Response: n

---

System: RSV
Experiment summary: Plaque-reduction neutralization (PRNT) assay, RSV
Type: cell-based
Run conditions: human respiratory syncytial virus; RSV on vero cells; in Table S1 printed as ± followed by a range
Measurement name: IC50 (nM)
Give bare numbers, in nM.

Request: Param item = Cc1ccc(CCCO)c(NCc2ccc3nc(NCCCN4CCOCC4)n(Cc4nc(C)ccc4O)c3c2)c1 ; retrieve measured IC50.
Response: 5.8

---

Study system: RSV F protein (Human respiratory syncytial virus A, UniProt P03420)
Construct: expressed in transfected cells; host or cells: Cos7 cells (transiently transfected), co-plated with BsrT7 cells
Experiment summary: Cell content mixing T7 luciferase fusion assay, recombinant F, 384-well
Format: cell-based
Measurement name: IC50 (µM)
Give bare numbers, in µM.

Some compounds with recorded IC50:
Request: Data request, read-out IC50, for Cc1ocnc1C(=O)N1CCN2C(=O)c3ccncc3C21C1CCOCC1 (stereo not drawn) [BTA-6]
Response: 1

Request: Fill in the blank: the reported IC50 of O=C(c1ccc(F)cc1)N1CCN2C(=O)c3cc[n+]([O-])cc3C12c1ccc(Cl)cc1 (stereo not drawn) [BTA-3] is ____.
Response: 31.6

Request: So what does the record say about IC50 for O=C(c1ccoc1)N1CCN2C(=O)c3ccncc3[C@]12c1ccc(Cl)cc1 [BTA-2] ?
Response: 2.51

Request: What measured IC50 goes with Cc1ocnc1C(=O)N1CCN2C(=O)c3ccncc3[C@@]21c1ccc(Cl)cc1 [BTA-5] ?
Response: 79.4

Request: Quick one: IC50 of O=C(c1ccc(F)cc1)N1CCN2C(=O)c3ccncc3C12c1ccc(Cl)cc1 (stereo not drawn) [BTA-1] ?
Response: 158

Now, please, on to the next compound.
Request: Would you kindly share the measured IC50 for O=C(c1ccoc1)N1CCN2C(=O)c3cc[n+]([O-])cc3[C@]12c1ccc(Cl)cc1 [BTA-4] ?
Response: 7.94

---

Provide the recorded log10 IC50 for the entries that follow.
System: RSV
Experiment summary: RSV CEI fusion assay, live virus, 96-well
Assay type: cell-based, respiratory syncytial virus
Run conditions: human respiratory syncytial virus, read-out: RSV CEI 96 IC50
The base-10 logarithm of IC50, taken with IC50 in nM, is what appears here.

// worked examples, log10 IC50 included
Request: Observed log10 IC50 on RSV for O=C1c2ccncc2[C@@]2(c3ccc(Cl)cc3)N1CCN2C(=O)C1CC1 , please.
Response: 2.90

Request: For the record O=C(c1ccoc1)N1CCN2C(=O)c3cc[n+]([O-])cc3[C@]12c1ccc(Cl)cc1 , what value of log10 IC50 is listed for RSV?
Response: 1.60

Request: Record lookup: for RSV, what log10 IC50 belongs to O=C(c1ccoc1)N1CCN2C(=O)c3ccncc3[C@]12c1ccc(Cl)cc1 ?
Response: 1.30

Request: So what log10 IC50 did Cc1ocnc1C(=O)N1CCN2C(=O)c3ccncc3[C@@]21c1ccc(Cl)cc1 get with RSV?
Response: 2.70

In the following, a different compound is considered.
Request: Give log10 IC50 (RSV) of the following compound: O=C(c1ccc(F)cc1)N1CCN2C(=O)c3cc[n+]([O-])cc3C12c1ccc(Cl)cc1 (centres unmarked)
Response: 2.30

---

Study system: RSV F protein (Human respiratory syncytial virus A)
Construct: expressed in transfected cells; host or cells: Cos7 cells (transiently transfected), co-plated with BsrT7 cells
Experiment summary: Cell content mixing T7 luciferase fusion assay, recombinant F, 96-well
Type: cell-based
pIC50: −log10 of the molar value.
Values of pIC50 greater than or equal to 6 map to Y; values below map to N.

A selection of reference data follows.
Request: Say whether Cc1ocnc1C(=O)N1CCN2C(=O)c3ccncc3[C@@]21c1ccc(Cl)cc1 shows pIC50 of 6 or more.
Response: N

Request: Check this compound for pIC50 at or above 6: O=C(c1ccoc1)N1CCN2C(=O)c3ccncc3[C@]12c1ccc(Cl)cc1
Response: Y

Request: Test whether the compound O=C1c2ccncc2[C@@]2(c3ccc(Cl)cc3)N1CCN2C(=O)C1CC1 records pIC50 of 6 or higher.
Response: N

More entries:
Request: Hello, I need to know if O=C(c1ccc(F)cc1)N1CCN2C(=O)c3ccncc3C12c1ccc(Cl)cc1 (stereo not shown) has measured pIC50 not below 6. Thanks!
Response: N

Request: Hi, just wondering whether Cc1ocnc1C(=O)N1CCN2C(=O)c3ccncc3C21C1CCOCC1 (stereo not shown) shows pIC50 of 6 or higher.
Response: Y

Request: Assess whether reported pIC50 for O=C(c1ccc(F)cc1)N1CCN2C(=O)c3cc[n+]([O-])cc3C12c1ccc(Cl)cc1 (stereo not shown) sits at 6 or higher.
Response: N

---

Tested on: RSV
Experiment summary: RSV CEI fusion assay, live virus, 96-well
Format: cell-based, respiratory syncytial virus
Run conditions: human respiratory syncytial virus, read-out: RSV CEI 96 IC50
Measurement name: pIC50
Numbers only, as −log10 of the molar value.

Request: Give RSV pIC50 for Cc1ocnc1C(=O)N1CCN2C(=O)c3ccncc3C21C1CCOCC1 (stereo not drawn) [BTA-6]
Response: 8.30

Request: Can you look up pIC50 on RSV for Cc1ccc(CCCO)c(NCc2ccc3nc(NCCCN4CCOCC4)n(Cc4nc(C)ccc4O)c3c2)c1 [TMC-353121] ?
Response: 9.10

Next compound, pIC50 to be filled in.
Request: Hello, I am looking for reported pIC50 with RSV for O=C(c1ccc(F)cc1)N1CCN2C(=O)c3ccncc3C12c1ccc(Cl)cc1 (stereo not drawn) [BTA-1] . Could you help?
Response: 6.40
